# Target of assay: Cyclin-dependent kinase 4/cyclin D (Homo sapiens)
# Method: Inhibition of CDK4-Cyclin D
Measured metric: pIC50
// pIC50 is dimensionless: -log10 of concentration (M)

Sample smiles | Reported result
CCCCOc1c(C(=O)c2c(F)cc(C)cc2F)c[nH]c2nncc1-2 | 6.64

Exercise: What does the record list as pIC50 for CCCCOc1c(C(=O)c2c(F)cc(Br)cc2F)cnc2[nH]ncc12 ?
Solution: 6.43

Exercise: Endpoint output: pIC50 of CCCCOc1c(C(=O)c2c(F)cc(OC)cc2F)cnc2[nH]ncc12 . Value?
Solution: 6.64

Exercise: What measured pIC50 goes with CCCCOc1c(C(=O)c2c(F)cccc2F)cnc2[nH]ncc12 ?
Solution: 4.68

Exercise: Could you share which pIC50 value was measured for CCCCOc1c(C(=O)c2c(F)cc(Cl)cc2F)cnc2[nH]ncc12 ?
Solution: 6.51

Exercise: // pIC50 lookup, key: CCCCOc1c(C(=O)c2ccccc2F)cnc2[nH]ncc12
Solution: 4.62

Numbers sourced from ChEMBL document CHEMBL1136116.
